Value source: the nanobody polyreactivity screen of Harvey et al. (2022)

# methodNotes: yeast display, Sf9 membrane polyspecificity reagent, FACS + sequencing; frameworks hold sequencing errors

residues	polyreactivity (PSR sort gate)
QVQLVESGGGLVQAGCSLRLSCAASGSILWHYAKGWYRQAPGKERELVAFISSSGSTYYADSVKGRFTISRDNAKNTVYLQMNSLKPEDTAVDYCNAYRLYSGYVPYDYWGQCTQVTVSS	high polyreactivity
QVQLVESGGGLVQSGGSLRLSCAASGSIFDFYVMGWYRQAPGKERELVAAITWSDGSTYYADSVKGRFTISRDNAKNTVYLQMNSLKPEDTAVYYCNAGYFPLLGYPADAIGYDYWGQGTQVTVSS	low polyreactivity
QVQLVETGGGLVQAGGSLRVSCAASGRTFVGNAMGWYRQPPGKERELVAAISYSGDDTYYADSVKGRFTISRDNAKNTVYLQMNSLKPVDTAVYYCAAEWTAENAGIVLELEYWGQGTQVTVSS	high polyreactivity
QVQLVESGGGLVQAGGSLRLSCAASGFIFYSYAMGWNRQAPGKERELVADISRSGSTNYADSVKGRFTISRDNAKNTVYLQMNSLKPEDTAVYYCNKGYHSWSRLSQFGWSYDYWGQGTQVTVSS	high polyreactivity
QVQLVESGGGLFQAGGSLRLSCADSGSTFSLYAMGWDRQAPGKDRELVAAITWSGGSTYYADSEKGRFTISRDNAKTTVYLQMTSLPPEDTAVYYCAAHRIGYYLRVSYRGKYDHWGQGTQVTVSS	low polyreactivity
